All values here come from patent US20260274814A1.

# System: mice
# TEST PROTOCOL: Neuropharmacological Assay (SmartCube): automated behavioral signature of compound-treated mice compared with a database of reference drug classes
# Format: in vivo
# CONDITION DETAILS: minimal effective dose: dose having 45% or more total activity in SmartCube, i.p., if only one dose tested, that dose is shown
# Excerpt: Neurosci. 2011 Sep. 9; 5: 103 (doi: 10.3389/fnins.2011.00103) (“Roberds”). […] To facilitate testing of multiple compounds for behavioral effects relevant to psychiatric disease, PsychoGenics, Inc. (Tarrytown, NY, “PGI”) developed SmartCube™ an automated system in which behaviors of compound-treated mice are captured by digital video and analyzed with computer algorithms. […]
Counter-ions that a name gives are not always drawn.

{"COMPOUND": "CNC1CCc2scc(-c3ccccc3)c2C1 (single isomer, unassigned) [Compound 233, hydrochloride]", "ASSAY TARGET": "mice", "UNITS OF MEASURE": "mpk", "VALUE PREFIX": ">", "MED": 3}
{"COMPOUND": "CN(C)C1CCc2cscc2C1.Cl (single isomer, unassigned)", "ASSAY TARGET": "mice", "UNITS OF MEASURE": "mpk", "VALUE PREFIX": "=", "MED": 3}
{"COMPOUND": "CNC1COc2csc(C(F)(F)F)c2C1 (single isomer, unassigned) [Compound 259, hydrochloride]", "ASSAY TARGET": "mice", "UNITS OF MEASURE": "mpk", "VALUE PREFIX": ">", "MED": 3}
{"COMPOUND": "Cc1csc2c1CC(N)CC2 (single isomer, unassigned) [Compound 144, hydrochloride]", "ASSAY TARGET": "mice", "UNITS OF MEASURE": "mpk", "VALUE PREFIX": "=", "MED": 1}
{"COMPOUND": "CNC1CCc2cc(Cl)sc2C1 (single isomer, unassigned) [Compound 146, hydrochloride]", "ASSAY TARGET": "mice", "UNITS OF MEASURE": "mpk", "VALUE PREFIX": "=", "MED": 3}
{"COMPOUND": "CNC1(C)CCc2cc(C(F)(F)F)sc2C1.Cl (single isomer, unassigned)", "ASSAY TARGET": "mice", "UNITS OF MEASURE": "mpk", "VALUE PREFIX": "=", "MED": 3}
{"COMPOUND": "Cc1scc2c1CCC(N)C2 (single isomer, unassigned) [Compound 165, hydrochloride]", "ASSAY TARGET": "mice", "UNITS OF MEASURE": "mpk", "VALUE PREFIX": "=", "MED": 3}
{"COMPOUND": "NC1CCc2scc(C3CC3)c2C1 (single isomer, unassigned) [Compound 278, hydrochloride]", "ASSAY TARGET": "mice", "UNITS OF MEASURE": "mpk", "VALUE PREFIX": ">", "MED": 3}
{"COMPOUND": "CNC1(C)CCc2c(csc2C)C1 (single isomer, unassigned) [Compound 150, hydrochloride]", "ASSAY TARGET": "mice", "UNITS OF MEASURE": "mpk", "VALUE PREFIX": "=", "MED": 3}
{"COMPOUND": "CNC1CCc2scc(C3CCC3)c2C1 (single isomer, unassigned) [Compound 268, hydrochloride]", "ASSAY TARGET": "mice", "UNITS OF MEASURE": "mpk", "VALUE PREFIX": ">", "MED": 3}
{"COMPOUND": "c1scc2c1CCC(NC1CCC1)C2 (single isomer, unassigned) [Compound 161, hydrochloride]", "ASSAY TARGET": "mice", "UNITS OF MEASURE": "mpk", "VALUE PREFIX": ">", "MED": 3}
{"COMPOUND": "CNC1CCc2c(sc(Cl)c2C)C1 (single isomer, unassigned) [Compound 148, hydrochloride]", "ASSAY TARGET": "mice", "UNITS OF MEASURE": "mpk", "VALUE PREFIX": "=", "MED": 3}
{"COMPOUND": "CNC1CCc2c(C(F)(F)F)csc2C1 (single isomer, unassigned) [Compound 231, hydrochloride]", "ASSAY TARGET": "mice", "UNITS OF MEASURE": "mpk", "VALUE PREFIX": "=", "MED": 3}
{"COMPOUND": "CNC1(C)COc2c(C)csc2C1.Cl (stereo not shown) [Compound 239]", "ASSAY TARGET": "mice", "UNITS OF MEASURE": "mpk", "VALUE PREFIX": ">", "MED": 3}
{"COMPOUND": "NC1CCc2sccc2C1 (single isomer, unassigned) [Compound 213, hydrochloride]", "ASSAY TARGET": "mice", "UNITS OF MEASURE": "mpk", "VALUE PREFIX": "=", "MED": 1}
{"COMPOUND": "CNC1CCc2scc(CN)c2C1 (single isomer, unassigned) [Compound 237, dihydrochloride]", "ASSAY TARGET": "mice", "UNITS OF MEASURE": "mpk", "VALUE PREFIX": ">", "MED": 3}
{"COMPOUND": "CNC1CCc2c(Cl)csc2C1 (single isomer, unassigned) [Compound 199, hydrochloride]", "ASSAY TARGET": "mice", "UNITS OF MEASURE": "mpk", "VALUE PREFIX": "<", "MED": 3}
{"COMPOUND": "CNC1(C)COc2c(C)csc2C1.Cl (stereo not shown) [Compound 240]", "ASSAY TARGET": "mice", "UNITS OF MEASURE": "mpk", "VALUE PREFIX": "=", "MED": 3}
{"COMPOUND": "CC1(N)CCc2c(C(F)(F)F)csc2C1.Cl (single isomer, unassigned)", "ASSAY TARGET": "mice", "UNITS OF MEASURE": "mpk", "VALUE PREFIX": "=", "MED": 3}
{"COMPOUND": "CC1(N2CCCC2)CCc2ccsc2C1 (single isomer, unassigned)", "ASSAY TARGET": "mice", "UNITS OF MEASURE": "mpk", "VALUE PREFIX": "=", "MED": 3}
{"COMPOUND": "CNC1CCc2sc(Cl)cc2C1 (single isomer, unassigned) [Compound 152, hydrochloride]", "ASSAY TARGET": "mice", "UNITS OF MEASURE": "mpk", "VALUE PREFIX": "=", "MED": 3}
{"COMPOUND": "CNC1CCc2scc(C3CC3)c2C1 (single isomer, unassigned) [Compound 250, hydrochloride]", "ASSAY TARGET": "mice", "UNITS OF MEASURE": "mpk", "VALUE PREFIX": "=", "MED": 3}
{"COMPOUND": "CNC1CCc2sc(-c3ccccc3)cc2C1.Cl (single isomer, unassigned)", "ASSAY TARGET": "mice", "UNITS OF MEASURE": "mpk", "VALUE PREFIX": ">", "MED": 3}
{"COMPOUND": "NC1CCc2scc(C(F)(F)F)c2C1 (single isomer, unassigned) [Compound 255, hydrochloride]", "ASSAY TARGET": "mice", "UNITS OF MEASURE": "mpk", "VALUE PREFIX": ">", "MED": 3}
{"COMPOUND": "NC1CCc2cscc2C1 (single isomer, unassigned) [Compound 167, hydrochloride]", "ASSAY TARGET": "mice", "UNITS OF MEASURE": "mpk", "VALUE PREFIX": "=", "MED": 1}
